The reported numbers originate from patent US7691842B2.

System: E. Coli GC2203
TEST: Antimicrobial susceptibility testing, microbroth dilution MIC of piperacillin + inhibitor
Format: cell-based
CONDITION LABEL: piperacillin combined with constant 4 μg/ml inhibitor; Inc: 35° C. for 18 hours
In this section we review reported Minimal Inhibitory Concentration E. Coli GC2203 values for a set of molecules.
Your answer should be a plain number; it is taken to be in µg/mL.

Known results for molecules:
INSERT INTO results (molecule, unit_string, numeric_value) VALUES
  ('O=C([O-])C1=CS[C@@H]2/C(=C\c3cc4c(s3)-c3cccnc3SC4)C(=O)N12.[Na+] [Example 21]', 'µg/mL', 2),
  ('CCOC(=O)N1CCc2c(oc3cc(/C=C4/C(=O)N5C(C(=O)[O-])=CS[C@H]45)nn23)C1.[Na+] [Example 33]', 'µg/mL', 2),
  ('O=C([O-])C1=CS[C@@H]2/C(=C\c3cc4oc5c(n4n3)CCCC5)C(=O)N12.[Na+] [Example 32]', 'µg/mL', 2),
  ('Cc1ccc2c(c1)sc1nc(/C=C3/C(=O)N4C(C(=O)O)=CS[C@H]34)cn12 [Example 7]', 'µg/mL', 1),
  ('O=C(O)C1=CS[C@@H]2/C(=C\c3cn4c(nc5ccccc54)s3)C(=O)N12 [Example 17]', 'µg/mL', 2),
  ('O=C(O)C1=CS[C@@H]2/C(=C\c3cn4c5c(sc4n3)CCCC5)C(=O)N12 [Example 19]', 'µg/mL', 2);

What value of Minimal Inhibitory Concentration E. Coli GC2203 has been reported for the following molecule? O=C(O)C1=CS[C@@H]2/C(=C\c3ccc4c(c3)sc3nccn34)C(=O)N12 [Example 16]
4

Tell me the measured Minimal Inhibitory Concentration E. Coli GC2203 of O=C(O)C1=CS[C@@H]2/C(=C\c3cn4nc5c(c4s3)CCC5)C(=O)N12 [Example 18] , please.
4

Query (molecule): O=C([O-])C1=CS[C@@H]2C(=Cc3cc4n(n3)Cc3ccccc3OC4)C(=O)N12.[Na+] [Example 11] ; field requested: Minimal Inhibitory Concentration E. Coli GC2203
1
